Test system: MDR S. aureus
Assay: microbe, parasite or virus in culture
Settings: CLSI broth microdilution; CAMHB with 50 mg/L Ca2+, 10 mg/L Mg2+; 5 × 10^5 CFU/ml; 18 h 37 °C; triplicate; strain KCCM 40510
Square brackets hold non-standard residues; d marks the D form. Peptide text beside a SMILES is read from it. Trp(2,5,7-tBu3) = CC(C)(C)c1cc(C(C)(C)C)c2[nH]c(C(C)(C)C)c(C[C@H](N)C(=O)O)c2c1
attribute.measured: Minimum inhibitory concentrations, MDR S. aureus (µM)

compound: CC[C@H](C)[C@H](NC(=O)[C@H](Cc1c[nH]c2ccccc12)NC(=O)[C@H](CC(C)C)NC(=O)[C@H](CC(C)C)NC(=O)[C@@H](N)Cc1c(C(C)(C)C)[nH]c2c(C(C)(C)C)cc(C(C)(C)C)cc12)C(=O)N[C@@H](C)C(=O)N[C@@H](CC(C)C)C(=O)N[C@@H](CCCNC(=N)N)C(=O)N[C@@H](CCCCN)C(=O)N[C@@H](CCCCN)C(N)=O [WtCopW] (H-[Trp(2,5,7-tBu3)]LLWIALRKK-NH2)
target: MDR S. aureus
value.measured: 5
//
compound: CC[C@@H](C)[C@@H](NC(=O)[C@@H](Cc1c[nH]c2ccccc12)NC(=O)[C@@H](Cc1ccc(O)cc1)NC(=O)[C@@H](CC(C)C)NC(=O)[C@H](N)Cc1c[nH]c2ccccc12)C(=O)NCC(=O)N[C@H](CC(C)C)C(=O)N[C@H](CCCNC(=N)N)C(=O)N[C@H](CCCCN)C(=O)N[C@H](CCCCN)C(=O)N[C@H](CCCNC(=N)N)C(N)=O [WCopWY] (H-[dW][dL][dY][dW][dI]G[dL][dR][dK][dK][dR]-NH2)
target: MDR S. aureus
value.measured: 10
//
compound: CC[C@@H](C)[C@@H](NC(=O)[C@@H](Cc1c[nH]c2ccccc12)NC(=O)[C@H](NC(=O)[C@@H](CC(C)C)NC(=O)[C@@H](Cc1c[nH]c2ccccc12)NC(=O)[C@H](N)CC(=O)O)C(C)C)C(=O)N[C@H](Cc1c[nH]c2ccccc12)C(=O)N[C@H](CCCNC(=N)N)C(=O)N[C@H](CCCNC(=N)N)C(=O)N[C@H](CCCNC(=N)N)C(N)=O [WCopW36] (H-[dD][dW][dL][dV][dW][dI][dW][dR][dR][dR]-NH2)
target: MDR S. aureus
value.measured: 1.25

----------
Tested on: human red blood cells
Assay: Hemolytic activity
Assay type: cell-based
Settings: red cells of human, 18 h, 50
Procedure: Human red blood cells (Zenbio, North Carolina, USA) and peptides were separately diluted in PBS (blood concentration, 8%). The blood cell and peptide solutions were then mixed in 96-well polyethylene plates (SPL, Gyeonggi-do, Korea) and incubated for 18 h at 37 °C. […] Hemolysis levels were determined by measuring the absorbance at 540 nm with a SpectraMax plate spectrophotometer (Molecular Devices, California, USA). […]
Square brackets hold non-standard residues; d marks the D form. Peptide text beside a SMILES is read from it. dBta = N[C@H](Cc1csc2ccccc12)C(=O)O
Each entry below carries its reported Hemolysis percent, 50 μM.
attribute.measured: Hemolysis percent, 50 μM (%)

compound: CC[C@@H](C)[C@@H](NC(=O)[C@@H](Cc1c[nH]c2ccccc12)NC(=O)[C@H](NC(=O)[C@@H](CC(C)C)NC(=O)[C@H](N)Cc1c[nH]c2ccccc12)C(C)C)C(=O)N[C@H](Cc1ccc(O)cc1)C(=O)N[C@H](CCCNC(=N)N)C(=O)N[C@H](CCCCN)C(=O)N[C@H](CCCCN)C(=O)N[C@H](CCCNC(=N)N)C(N)=O [WCopWVY4] (H-[dW][dL][dV][dW][dI][dY][dR][dK][dK][dR]-NH2)
result.units: %
value.measured: 2.57

compound: CC[C@@H](C)[C@@H](NC(=O)[C@@H](Cc1c[nH]c2ccccc12)NC(=O)[C@@H](CC(C)C)NC(=O)[C@@H](CC(C)C)NC(=O)[C@H](N)Cc1c[nH]c2ccccc12)C(=O)N[C@H](C)C(=O)N[C@H](CC(C)C)C(=O)N[C@H](CCCNC(=N)N)C(=O)N[C@H](CCCCN)C(=O)N[C@H](CCCCN)C(=O)N[C@H](CCCNC(=N)N)C(N)=O [WCopW4] (H-[dW][dL][dL][dW][dI][dA][dL][dR][dK][dK][dR]-NH2)
result.units: %
value.measured: 9.85

compound: CC[C@@H](C)[C@@H](NC(=O)[C@@H](Cc1c[nH]c2ccccc12)NC(=O)[C@@H](Cc1ccc(O)cc1)NC(=O)[C@@H](CC(C)C)NC(=O)[C@H](N)Cc1c[nH]c2ccccc12)C(=O)N[C@H](CC(C)C)C(=O)N[C@H](CC(C)C)C(=O)N[C@H](CCCNC(=N)N)C(=O)N[C@H](CCCCN)C(=O)N[C@H](CCCCN)C(=O)N[C@H](CCCNC(=N)N)C(N)=O [WCopWYL] (H-[dW][dL][dY][dW][dI][dL][dL][dR][dK][dK][dR]-NH2)
result.units: %
value.measured: 6.29

compound: CC[C@@H](C)[C@@H](NC(=O)[C@@H](Cc1c[nH]c2ccccc12)NC(=O)[C@H](NC(=O)[C@@H](CC(C)C)NC(=O)[C@@H](Cc1c[nH]c2ccccc12)NC(=O)[C@H](N)CCCCN)C(C)C)C(=O)N[C@H](Cc1c[nH]c2ccccc12)C(=O)N[C@H](CCCNC(=N)N)C(=O)N[C@H](CCCNC(=N)N)C(=O)N[C@H](CCCNC(=N)N)C(N)=O [WCopW35] (H-[dK][dW][dL][dV][dW][dI][dW][dR][dR][dR]-NH2)
result.units: %
value.measured: 2.71

compound: CC[C@@H](C)[C@@H](NC(=O)[C@H](N)Cc1c[nH]c2ccccc12)C(=O)N[C@@H](C(=O)N[C@H](Cc1c[nH]c2ccccc12)C(=O)N[C@@H](C(=O)N[C@H](Cc1c[nH]c2ccccc12)C(=O)N[C@H](CCCNC(=N)N)C(=O)N[C@H](CCCNC(=N)N)C(=O)N[C@H](CCCNC(=N)N)C(N)=O)[C@H](C)CC)[C@H](C)CC [WCopW61] (H-[dW][dI][dI][dW][dI][dW][dR][dR][dR]-NH2)
result.units: %
value.measured: 8.91

compound: CC[C@@H](C)[C@@H](NC(=O)[C@@H](Cc1c[nH]c2ccccc12)NC(=O)[C@@H](CCCNC(=N)N)NC(=O)[C@@H](CCCNC(=N)N)NC(=O)[C@H](N)CCCNC(=N)N)C(=O)N[C@H](Cc1c[nH]c2ccccc12)C(=O)N[C@@H](C(=O)N[C@@H](C(=O)N[C@H](Cc1c[nH]c2ccccc12)C(N)=O)[C@H](C)CC)[C@H](C)CC [WCopW60] (H-[dR][dR][dR][dW][dI][dW][dI][dI][dW]-NH2)
result.units: %
value.measured: 15.14

compound: CCCCCCCCCC(=O)N[C@@H](Cc1c[nH]c2ccccc12)C(=O)N[C@H](CC(N)=O)C(=O)N[C@@H](CC(=O)O)C(=O)N[C@@H]1C(=O)NCC(=O)N[C@@H](CCCN)C(=O)N[C@@H](CC(=O)O)C(=O)N[C@H](C)C(=O)N[C@@H](CC(=O)O)C(=O)NCC(=O)N[C@H](CO)C(=O)N[C@@H]([C@H](C)CC(=O)O)C(=O)N[C@@H](CC(=O)c2ccccc2N)C(=O)O[C@@H]1C [Daptomycin, reference compound]
result.units: %
value.measured: 0.03

compound: CC(C)C[C@@H](NC(=O)[C@H](N)Cc1c[nH]c2ccccc12)C(=O)N[C@@H](C(=O)N[C@H](Cc1c[nH]c2ccccc12)C(=O)N[C@H](CCCCN)C(=O)N[C@H](Cc1c[nH]c2ccccc12)C(=O)N[C@H](CCCNC(=N)N)C(=O)N[C@H](CCCNC(=N)N)C(=O)N[C@H](CCCNC(=N)N)C(N)=O)C(C)C [WCopW37] (H-[dW][dL][dV][dW][dK][dW][dR][dR][dR]-NH2)
result.units: %
value.measured: 0.08

compound: CC[C@@H](C)[C@@H](NC(=O)[C@@H](Cc1c[nH]c2ccccc12)NC(=O)[C@@H](CC(C)C)NC(=O)[C@@H](CC(C)C)NC(=O)[C@H](N)Cc1csc2ccccc12)C(=O)NCC(=O)N[C@H](CC(C)C)C(=O)N[C@H](CCCNC(=N)N)C(=O)N[C@H](CCCCN)C(=O)N[C@H](CCCCN)C(=O)N[C@H](CCCNC(=N)N)C(N)=O [WCopW16] (H-[dBta][dL][dL][dW][dI]G[dL][dR][dK][dK][dR]-NH2)
result.units: %
value.measured: 5.57

compound: CC[C@@H](C)[C@@H](NC(=O)[C@@H](Cc1c[nH]c2ccccc12)NC(=O)[C@H](NC(=O)[C@@H](CC(C)C)NC(=O)[C@H](N)Cc1c[nH]c2ccccc12)C(C)C)C(=O)N[C@H](Cc1c[nH]c2ccccc12)C(=O)N[C@H](CCCNC(=N)N)C(=O)N[C@H](CCCNC(=N)N)C(=O)N[C@H](CCC(N)=O)C(=O)N[C@H](CCCNC(=N)N)C(N)=O [WCopW31] (H-[dW][dL][dV][dW][dI][dW][dR][dR][dQ][dR]-NH2)
result.units: %
value.measured: 1.82
